Test system: MCF7 breast
PROTOCOL: NCI tumour cell line growth inhibition, 48 h
Decision: TGI compared against 20 µM; not below it gives 1 (yes), below it gives 0 (no).

Field: example entries. Status: answers known.
[[record]]
compound = "CCSc1nc(N=Cc2cccs2)c2cn[nH]c2n1"
group = "0 (no)"

[[record]]
compound = "COc1c(O)ccc2c1CN1CCc3cc4c(cc3C1C2)OCO4 (stereo not drawn)"
group = "1 (yes)"

[[record]]
compound = "c1ccc(CCN(Cc2nc3ccccc3[nH]2)Cc2nc3ccccc3[nH]2)cc1"
group = "1 (yes)"

[[record]]
compound = "S=C(Nc1cccc(Cl)c1)Nc1ccccn1"
group = "1 (yes)"

[[record]]
compound = "COc1cc2cc(C(=O)N3CC(CCl)c4ccc(NCCN)cc43)[nH]c2c(OC)c1OC (stereo not drawn)"
group = "0 (no)"


[ask] Exam item: decide whether the reported TGI for COc1ccc(/C=C\c2cc(OC)c(OC)c(OC)c2)cc1OCC(=O)Nc1nc2ccc(C(F)(F)F)cc2s1 is at least 20 µM.
[reply] 1 (yes)

[ask] Quick check, TGI >= 20 µM? O=C(C(Br)Br)C(Br)C(Br)c1ccccc1 (stereo not drawn)
[reply] 0 (no)

[ask] Determine whether measured TGI meets or exceeds 20 µM for COC(=O)Nc1nc2ccccc2c(=O)[nH]1
[reply] 1 (yes)
